- target.or.test.system: THR beta-LBD (Homo sapiens, UniProt P10828)
- Construct: THR beta-LBD (the final concentration is 0.5 nM) was added to the 384-well assay plate; purchased Invitrogen PV4686
- Sequence (P10828 217-461 limits assumed): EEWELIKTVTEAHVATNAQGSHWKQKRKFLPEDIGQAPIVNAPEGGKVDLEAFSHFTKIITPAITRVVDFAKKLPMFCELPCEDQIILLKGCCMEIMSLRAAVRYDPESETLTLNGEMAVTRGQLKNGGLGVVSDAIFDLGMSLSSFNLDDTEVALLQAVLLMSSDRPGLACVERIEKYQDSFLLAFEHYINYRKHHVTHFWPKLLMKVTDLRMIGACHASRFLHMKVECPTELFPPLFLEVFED
- experiment.notes: THR-β Coactivator Peptide Recruitment Assay (LanthaScreen TR-FRET)
- Type: biochemical
- assay.setup: TR-FRET coactivator recruitment, THR beta-LBD 0.5 nM; read-out: THRβ EC50
Each entry below carries its recorded EC50.

compound.string: O=c1[nH]c(=O)n(-c2cc(Cl)c(Oc3ccc(O)c(S(=O)(=O)N4CCC(F)(F)CC4)c3)c(Cl)c2)nc1C(F)(F)F
target.or.test.system: THR beta-LBD (Homo sapiens, UniProt P10828)
EC50: 2 to 20 nM
--
compound.string: CO[C@H]1C[C@H](NS(=O)(=O)c2cc(Oc3c(Cl)cc(-n4nc(C(F)F)c(=O)[nH]c4=O)cc3Cl)ncc2O)C1
target.or.test.system: THR beta-LBD (Homo sapiens, UniProt P10828)
EC50: 2 to 20 nM
--
compound.string: O=c1[nH]c(=O)n(-c2cc(Cl)c(Oc3cc(S(=O)(=O)NCC(F)F)c(O)cn3)c(Cl)c2)nc1C(F)F
target.or.test.system: THR beta-LBD (Homo sapiens, UniProt P10828)
EC50: < 2 nM
--
compound.string: O=c1[nH]c(=O)n(-c2cc(Cl)c(Oc3cc(S(=O)(=O)C4CC4)c(O)cn3)c(Cl)c2)nc1C(F)F
target.or.test.system: THR beta-LBD (Homo sapiens, UniProt P10828)
EC50: < 2 nM
--
compound.string: O=c1[nH]c(=O)n(-c2cc(Cl)c(Oc3ccc(O)c(S(=O)(=O)N4CC[C@@H](O)C4)c3)c(Cl)c2)nc1C(F)F
target.or.test.system: THR beta-LBD (Homo sapiens, UniProt P10828)
EC50: < 2 nM

Prompt line: Form field: reported EC50 of `O=c1[nH]c(=O)n(-c2cc(Cl)c(Oc3cc(S(=O)(=O)N4CC(F)(F)C4)c(O)cn3)c(Cl)c2)nc1C(F)F`
Response line: < 2 nM

Prompt line: Form field: reported EC50 of `CNS(=O)(=O)c1cc(Oc2c(Cl)cc(-n3nc(C(F)(F)F)c(=O)[nH]c3=O)cc2Cl)ccc1O`
Response line: 2 to 20 nM

---

- target.or.test.system: THR alpha-LBD (Homo sapiens, UniProt P10827)
- Construct: except that THR alpha-LBD of a final concentration 0.25 nM was used; purchased Invitrogen PV4687
- Sequence (P10827 163-410 isoform P10827-2 limits assumed, other chains not shown): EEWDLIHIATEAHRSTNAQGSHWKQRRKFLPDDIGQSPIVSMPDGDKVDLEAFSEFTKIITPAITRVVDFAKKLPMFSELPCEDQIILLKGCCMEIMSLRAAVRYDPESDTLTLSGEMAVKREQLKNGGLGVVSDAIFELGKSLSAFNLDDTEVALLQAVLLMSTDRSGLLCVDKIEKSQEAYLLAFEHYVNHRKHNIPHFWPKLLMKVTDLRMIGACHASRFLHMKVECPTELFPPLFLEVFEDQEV
- experiment.notes: THR-α Coactivator Peptide Recruitment Assay (LanthaScreen TR-FRET)
- Format: biochemical
- assay.setup: TR-FRET coactivator recruitment, THR alpha-LBD 0.25 nM
reported.endpoint: THRα Emax

See these solved cases before continuing.
compound.string: N#C[C@H]1C[C@@H](NS(=O)(=O)c2cc(Oc3c(Cl)cc(-n4nc(C(F)F)c(=O)[nH]c4=O)cc3Cl)ncc2O)C1
THRα Emax: B (40~85)
//
compound.string: COCCNS(=O)(=O)c1cc(Oc2c(Cl)cc(-n3nc(C(F)F)c(=O)[nH]c3=O)cc2Cl)ccc1O
THRα Emax: B (40~85)
//
compound.string: O=c1[nH]c(=O)n(-c2cc(Cl)c(Oc3cc(S(=O)(=O)NC4CS(=O)(=O)C4)c(O)cn3)c(Cl)c2)nc1C(F)F
THRα Emax: A (85~110)
//
compound.string: O=C(C1CC1)N1CC(NS(=O)(=O)c2cc(Oc3c(Cl)cc(-n4nc(C(F)F)c(=O)[nH]c4=O)cc3Cl)ccc2O)C1
THRα Emax: B (40~85)
//
compound.string: O=c1[nH]c(=O)n(-c2cc(Cl)c(Cc3cc(S(=O)(=O)N[C@H]4C[C@H](O)C4)c(O)cn3)c(Cl)c2)nc1C(F)F
THRα Emax: B (40~85)
//
compound.string: O=C(NC1CCC1)C1(NS(=O)(=O)c2cc(Oc3c(Cl)cc(-n4nc(C(F)F)c(=O)[nH]c4=O)cc3Cl)ccc2O)CC1
THRα Emax: A (85~110)
//
compound.string: O=c1[nH]c(=O)n(-c2cc(Cl)c(Oc3ccc(O)c(S(=O)(=O)N4CC[C@@H](O)C4)c3)c(Cl)c2)nc1C(F)F
THRα Emax: A (85~110)
//
compound.string: O=c1[nH]c(=O)n(-c2cc(Cl)c(Oc3cc(S(=O)(=O)N[C@@H]4CCOC4)c(O)cn3)c(Cl)c2)nc1C(F)F
THRα Emax: A (85~110)

Prompt line: Form field: reported THRα Emax of `CNS(=O)(=O)c1cc(Oc2c(Cl)cc(-n3nc(C(F)F)c(=O)[nH]c3=O)cc2Cl)ncc1O`
Response line: B (40~85)

Prompt line: Form field: reported THRα Emax of `O=C(N1CCC1)C1(NS(=O)(=O)c2cc(Oc3c(Cl)cc(-n4nc(C(F)F)c(=O)[nH]c4=O)cc3Cl)ccc2O)CC1`
Response line: A (85~110)

Prompt line: Form field: reported THRα Emax of `CS(=O)(=O)N[C@@H]1CCN(S(=O)(=O)c2cc(Oc3c(Cl)cc(-n4nc(C(F)F)c(=O)[nH]c4=O)cc3Cl)ccc2O)C1`
Response line: B (40~85)

Prompt line: Form field: reported THRα Emax of `O=c1[nH]c(=O)n(-c2cc(Cl)c(Oc3ccc(O)c(S(=O)(=O)N[C@H]4CC[C@@H](O)C4)c3)c(Cl)c2)nc1C(F)F`
Response line: B (40~85)

---

- target.or.test.system: THR beta-LBD (Homo sapiens)
- Construct: THR beta-LBD (the final concentration is 0.5 nM) was added to the 384-well assay plate; purchased Invitrogen PV4686
- experiment.notes: THR-β Coactivator Peptide Recruitment Assay (LanthaScreen TR-FRET)
- Assay type: biochemical
- assay.setup: TR-FRET coactivator recruitment, THR beta-LBD 0.5 nM; read-out: THRβ EC50
Each entry below carries its recorded EC50.

Prompt line: Form field: reported EC50 of O=c1[nH]c(=O)n(-c2cc(Cl)c(Oc3cc(S(=O)(=O)N[C@H]4CC[C@H](O)CC4)c(O)cn3)c(Cl)c2)nc1C(F)F [Compound 143]
Response line: 2 to 20 nM

Prompt line: Form field: reported EC50 of O=C(NC1CCCC1)C1(NS(=O)(=O)c2cc(Oc3c(Cl)cc(-n4nc(C(F)F)c(=O)[nH]c4=O)cc3Cl)ncc2O)CC1 [Compound 116]
Response line: 20 to 100 nM

Prompt line: Form field: reported EC50 of O=c1[nH]c(=O)n(-c2cc(Cl)c(Oc3cc(S(=O)(=O)N[C@@H]4CC[C@H]4O)c(O)cn3)c(Cl)c2)nc1C(F)F (stereo in doubt) [Compound 171]
Response line: 20 to 100 nM

Prompt line: Form field: reported EC50 of CNS(=O)(=O)c1cc(Oc2c(Cl)cc(-n3nc(C#N)c(=O)[nH]c3=O)cc2Cl)ncc1O [Compound 102]
Response line: 2 to 20 nM

---

Each entry below carries its recorded pEC50.
- target.or.test.system: THR alpha-LBD (Homo sapiens)
- Construct: except that THR alpha-LBD of a final concentration 0.25 nM was used; purchased Invitrogen PV4687
- experiment.notes: THR-α Coactivator Peptide Recruitment Assay (LanthaScreen TR-FRET)
- Format: biochemical
- assay.setup: TR-FRET coactivator recruitment, THR alpha-LBD 0.25 nM; read-out: THRα EC50
pEC50: −log10 of the molar value.

See these solved cases before continuing.
compound: O=c1[nH]c(=O)n(-c2cc(Cl)c(Oc3cc(S(=O)(=O)N[C@H]4CC[C@@H](O)CC4)c(O)cn3)c(Cl)c2)nc1C(F)F [Compound 144]
result: < 6.00
//
compound: CC(C)(C)NC(=O)c1cc(Oc2c(Cl)cc(-n3nc(C(F)(F)F)c(=O)[nH]c3=O)cc2Cl)ccc1O [Compound 4]
result: 6.00 to 6.70
//
compound: CCNS(=O)(=O)c1cc(Oc2c(Cl)cc(-n3nc(C(F)F)c(=O)[nH]c3=O)cc2Cl)ncc1O [Compound 112]
result: 6.70 to 8.70
//
compound: O=c1[nH]c(=O)n(-c2cc(Cl)c(Oc3cc(S(=O)(=O)C4CCC4)c(O)cn3)c(Cl)c2)nc1C(F)F [Compound 153]
result: 6.70 to 8.70
//
compound: O=c1[nH]c(=O)n(-c2cc(Cl)c(Oc3ccc(O)c(S(=O)(=O)N[C@@H]4CCN(S(=O)(=O)C5CC5)C4)c3)c(Cl)c2)nc1C(F)F [Compound 48]
result: 6.00 to 6.70

// below: pEC50 requested for another compound
Prompt line: Form field: reported pEC50 of O=c1cnn(-c2cc(Cl)c(Oc3cc(S(=O)(=O)N[C@H]4C[C@H](O)C4)c(O)cn3)c(Cl)c2)c(=O)[nH]1 [Compound 165]
Response line: < 6.00
